Target: SARS-CoV-2 receptor binding domain (RBD), wild type (SARS-CoV-2, UniProt P0DTC2 319-539)
Experiment: ELISA, RBD coated on the plate, antibody titrated
// NB: equality with 6 ng/mL counts as Criterion not met; only EC50 strictly below is Criterion met

The examples below pair each entry with its known result.
C582 (antibody, V domains shown) VH: QVQLVESGGGVVQPGRSLRLSCVASGFTFSYFDMHWVRQAPGKGLEWVALISHDGSTTFYGDSARGRFTISRDNSRNTLDLQMNSLRPEDTAVYFCAKPVDAAMFDFWGQGTLVTVS VL: SYELTQPPSVSVAPGKTARITCGGNNIGSKSVHWYQQRPGQAPVLVIYYDSDRPSGIPERFSGSNSGNTATLTISRVEAGDEADFYCQVWDRSTNHLVVFGGGTQLTVL = Criterion not met
C596 (antibody, V domains shown) VH: QVQLVESGGGVVQPGRSLRLSCAASGITFSHYGMHWVRQAPGKGLEWVALISSDGSKKYYADSVKGRFTISRDNSKSTLYLQMNSLRAEDTAIYYCAKDLGYYYGPPYGPDYWGQGTLVTVSS VL: DIQMTQSPSSLSASVGDRVTITCQASQDVSNSLNWYQQKPGKAPKLLIYDASNLETGVPSRFSGSGSGTDFSFTISSLQPEDIATYYCLQYDNFSMYTFGQGTKLEIK = Criterion not met
C595 (antibody, V domains shown) VH: QVQLVESGGGVVQAGRSLRLSCAASGFTFSSFGLHWVRQAPGKGLEWVAVISDDGANKYYADSVKGRFTISRDNSKNTLYLQMNSLRADDTAKYYCAKSWWLSENWFDPWGQGTLVTVSS VL: EIVMTQSPATLSVSPGERATLSCRASQSVRSNLAWYQQKPGQAPRLLIYGASTRATGIPARFSGSGSGTDFTLTISSLQSEDFAVYYCQQYNNWPLTFGGGTKVEIK = Criterion met
C583 (antibody, V domains shown) VH: EVQLVESGGGLIQPGGSLRLSCAASILTVSRNYMSWVRQAPGKGLEWVSSIYSGGTTYYADSVKGRFTISRDDSKNTLYLQMNSLRAEDTAVYYCARPVVGGRAGMDVWGQGTTVTVSS VL: DIQMTQSPSSLSASVGDRVTITCQASQDINKYLNWYQQKPGKAPKLLIYDASNLETGVPSRFSGSGSGTDFTFTISSLQPEDIGTFYCLHNDNPPLTFGGGTKVEIK = Criterion met

# next binder below
Input line: Confirm or reject: EC50 of C588 (antibody, V domains shown) VH: EVQLVESGGGLVQPGGSLKLSCAASGFTFSGSAMHWVRQASGKGLEWVGRIRNKANSYATAYGASVRGRFTVSRDDSKNTAYLQMNSLKIEDTAVYYCTKDIAAGIPALNWFDSWGQGTLVTVSS VL: EIVLTQSPATLSLSPGERATLSCRASQSVSSYLAWYQQKPGQAPRLLIYDASNRATGIPARFSGSGSGTDFTLTISSLEPEDFAVYYCQQHTNWPPRITFGGGTKVEIK lies strictly below 6 ng/mL
Output line: Criterion met

All values here come from patent US20220195015A1.
